- assay-target: bovine trypsin (Bos taurus)
- Sequence (P00760 24-246): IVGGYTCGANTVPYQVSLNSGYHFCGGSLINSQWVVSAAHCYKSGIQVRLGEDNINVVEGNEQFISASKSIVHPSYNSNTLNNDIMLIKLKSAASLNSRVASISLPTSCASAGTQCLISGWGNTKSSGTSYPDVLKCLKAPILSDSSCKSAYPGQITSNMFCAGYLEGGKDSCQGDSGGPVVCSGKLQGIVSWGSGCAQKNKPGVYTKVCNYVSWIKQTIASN
- test-description: Proteinase inhibition assay, bovine trypsin
- Format: biochemical
- experimental-setup: Table 2; pH 7.4, 0.05M Tris, 0.15M NaCl, 0.1% PEG-8000, room temperature; read-out: Ki (nM) Trypsin
quantity-measured: Ki (nM)

1) CNC(=O)C(=O)C(NC(=O)C1CCCN1C(=O)C(Cc1ccc2ccccc2c1)NC)C1CCC(N)CC1 (stereo not shown)
2100
2) CNC(=O)C(=O)C(NC(=O)C1CCCN1C(=O)C(Cc1ccc(Cl)c(Cl)c1)NC)C1CCC(N)CC1 (stereo not shown)
660
3) CNC(Cc1ccccc1)C(=O)N1CCCC1C(=O)NC(C(=O)C(=O)NCc1ccccc1)C1CCC(N)CC1 (mixture of isomers)
120

P = CNC(Cc1ccccc1)C(=O)N1CCCC1C(=O)NC(C(=O)C(=O)NC1CC1)C1CCC(N)CC1 (mixture of isomers)
Q = CNC(Cc1ccccc1)C(=O)N1CCCC1C(=O)NC(C(=O)C(=O)N1CCC1)C1CCC(N)CC1 (mixture of isomers)
Pick the one with the larger Ki: P vs Q Respond using the label that marks the chosen record.
Q

----------
- assay-target: human α-thrombin (Homo sapiens)
- test-description: Proteinase inhibition assay, human α-thrombin
- Format: biochemical
- experimental-setup: Table 2; pH 7.4, 0.05M Tris, 0.15M NaCl, 0.1% PEG-8000, room temperature; read-out: Ki (nM) Thrombin
quantity-measured: Ki (nM)

The cases that follow already have their Ki on record.
1) CNC(=O)C(=O)C(NC(=O)C1CCCN1C(=O)CCc1ccccc1)C1CCC(N)CC1 (mixture of isomers) [ix]
4
2) CNC(=O)C(=O)C(NC(=O)C1CCCN1C(=O)C(Cc1ccc2ccccc2c1)NC)C1CCC(N)CC1 (stereo not shown) [xiv]
0.09
3) CNC(Cc1ccccc1)C(=O)N1CCCC1C(=O)NC(C(=O)C(=O)NCc1ccccc1)C1CCC(N)CC1 (mixture of isomers) [xvi]
0.6

1 = CNC(Cc1ccccc1)C(=O)N1CCCC1C(=O)NC(C(=O)C(=O)NC1CC1)C1CCC(N)CC1 (mixture of isomers) [xvii]
2 = CNC(=O)C(=O)C(NC(=O)C1CCCN1C(=O)C(Cc1ccc(Cl)c(Cl)c1)NC)C1CCC(N)CC1 (stereo not shown) [xii]
Pick the one with the larger Ki: 1 vs 2 Respond using the label that marks the chosen record.
1

I = CNC(=O)C(=O)C(NC(=O)C1CCCN1C(=O)C(CC1CCCCC1)NC)C1CCC(N)CC1 (stereo not shown) [x]
II = CNC(=O)C(=O)C(NC(=O)C1CCCN1C(=O)CC(c1ccccc1)c1ccccc1)C1CCC(N)CC1 (mixture of isomers) [xv]
Input pair: I , II . Output: entry with lower Ki. Respond using the label that marks the chosen record.
II

----------
- assay-target: bovine trypsin (Bos taurus)
- test-description: Proteinase inhibition assay, bovine trypsin
- Type: biochemical
- experimental-setup: Table 1; 25° C., 0.05M TRIS pH 7.4, 0.15M NaCl, 0.1% PEG, 1 mM CaCl2; listed as drawing 21; read-out: Ki (μM) Trypsin
quantity-measured: Ki (µM)
Dear colleague, please return just the value in µM, with no unit written.

bovine trypsin (Bos taurus) / Ki / CNC(=O)C(=O)C(NC(=O)C1CCCN1C(=O)C(Cc1ccccc1)NC)C1CCC(N)CC1 [4-3, H-NMe-D-Phe-Pro-t-D-Acg.PSI.[COCO]--NHMe] : value?
7

----------
Measured Ki of individual entries
- assay-target: Factor Xa (fXa) (Homo sapiens, UniProt P00742)
- Construct: Factor Xa (fXa), plasma kallikrein (p-Kal), plasmin (Pl)
- Sequence (P00742 235-488 limits assumed): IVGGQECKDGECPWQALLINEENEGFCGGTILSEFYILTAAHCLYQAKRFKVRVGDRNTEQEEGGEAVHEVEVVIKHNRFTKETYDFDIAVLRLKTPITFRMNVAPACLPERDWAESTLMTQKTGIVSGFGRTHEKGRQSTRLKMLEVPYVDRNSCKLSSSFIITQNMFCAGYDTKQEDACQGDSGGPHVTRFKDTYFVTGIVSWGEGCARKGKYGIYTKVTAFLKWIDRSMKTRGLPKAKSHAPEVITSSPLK
- Sequence (P00742 41-179 limits assumed): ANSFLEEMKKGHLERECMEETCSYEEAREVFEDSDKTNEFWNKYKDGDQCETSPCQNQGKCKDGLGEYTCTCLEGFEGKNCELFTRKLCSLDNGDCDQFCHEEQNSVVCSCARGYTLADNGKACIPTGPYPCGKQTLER
- test-description: Chromogenic assay, Factor Xa
- Type: biochemical
- experimental-setup: Table 3

The cases that follow already have their Ki on record.
1. CNC(=O)C(=O)C(NC(=O)C1CCCN1C(=O)CCc1ccc(Cl)c(Cl)c1)C1CCC(N)CC1 (stereo not drawn)
> 10000 nM
2. CNC(=O)C(=O)C(NC(=O)C1CCCN1C(=O)CCC1CCCCC1)C1CCC(N)CC1 (stereo not drawn)
> 10000 nM
3. CNC(Cc1ccccc1)C(=O)N1CCCC1C(=O)NC(C(=O)C(=O)NCc1ccccc1)C1CCC(N)CC1 (mixture of isomers)
> 10000 nM
4. CNC(=O)C(=O)C(NC(=O)C1CCCN1C(=O)C(CC1CCCCC1)NC)C1CCC(N)CC1 (stereo not drawn)
3000 nM
5. CNC(=O)C(=O)C(NC(=O)C1CCCN1C(=O)CC(c1ccccc1)c1ccccc1)C1CCC(N)CC1 (mixture of isomers)
> 10000 nM

Dear colleague, I am looking for the recorded Ki of the following molecule: CNC(Cc1ccccc1)C(=O)N1CCCC1C(=O)NC(C(=O)C(=O)N1CCC1)C1CCC(N)CC1 (mixture of isomers)
> 10000 nM

Dear colleague, I am looking for the recorded Ki of the following molecule: CNC(Cc1ccccc1)C(=O)N1CCCC1C(=O)NC(C(=O)C(=O)NC1CC1)C1CCC(N)CC1 (mixture of isomers)
> 10000 nM

Dear colleague, I am looking for the recorded Ki of the following molecule: CNC(Cc1ccccc1)C(=O)N1CCCC1C(=O)NC(C(=O)C(=O)O)C1CCC(N)CC1 (racemic) [3-3, H-NMe-D-Phe-Pro-t-DL-AcgY[COCO]--OH]
> 10000 nM

Dear colleague, I am looking for the recorded Ki of the following molecule: CNC(=O)C(=O)C(NC(=O)C1CCCN1C(=O)C(Cc1ccc(Cl)c(Cl)c1)NC)C1CCC(N)CC1 (stereo not drawn)
2300 nM

Dear colleague, I am looking for the recorded Ki of the following molecule: CNC(=O)C(=O)C(NC(=O)C1CCCN1C(=O)C(Cc1ccccc1)NC)C1CCC(N)CC1 (stereo not drawn)
> 10000 nM

Dear colleague, I am looking for the recorded Ki of the following molecule: CNC(=O)C(=O)C(NC(=O)C1CCCN1C(=O)C(Cc1ccc2ccccc2c1)NC)C1CCC(N)CC1 (stereo not drawn)
9000 nM

Dear colleague, I am looking for the recorded Ki of the following molecule: CNC(=O)C(=O)C(NC(=O)C1CCCN1C(=O)CCc1ccccc1)C1CCC(N)CC1 (mixture of isomers)
> 10000 nM

----------
- assay-target: human α-thrombin (Homo sapiens, UniProt P00734)
- test-description: Proteinase inhibition assay, human α-thrombin
- Type: biochemical
- experimental-setup: Table 2; pH 7.4, 0.05M Tris, 0.15M NaCl, 0.1% PEG-8000, room temperature; read-out: Ki (nM) Thrombin
quantity-measured: Ki (nM)

1. CNC(=O)C(=O)C(NC(=O)C1CCCN1C(=O)CCc1ccc(Cl)c(Cl)c1)C1CCC(N)CC1 (stereo not drawn)
0.4

a = CNC(=O)C(=O)C(NC(=O)C1CCCN1C(=O)CCC1CCCCC1)C1CCC(N)CC1 (stereo not drawn)
b = CNC(Cc1ccccc1)C(=O)N1CCCC1C(=O)NC(C(=O)C(=O)N1CCC1)C1CCC(N)CC1 (mixture of isomers)
Pick the one with the larger Ki: a vs b Respond using the label that marks the chosen record.
a
(a: 2.2 nM, b: 0.04 nM)

----------
- assay-target: plasma kallikrein (p-Kal) (Homo sapiens)
- Construct: plasma kallikrein (p-Kal)
- Sequence (P03952 391-638 limits assumed, species assumed): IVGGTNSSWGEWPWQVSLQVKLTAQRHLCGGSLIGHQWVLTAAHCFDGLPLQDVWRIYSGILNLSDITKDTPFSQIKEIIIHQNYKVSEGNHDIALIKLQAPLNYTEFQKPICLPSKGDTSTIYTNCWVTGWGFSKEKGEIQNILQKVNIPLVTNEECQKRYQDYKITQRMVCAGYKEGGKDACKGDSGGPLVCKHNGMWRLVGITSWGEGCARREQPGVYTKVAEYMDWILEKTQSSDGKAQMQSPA
- Sequence (P03952 20-390 limits assumed, species assumed): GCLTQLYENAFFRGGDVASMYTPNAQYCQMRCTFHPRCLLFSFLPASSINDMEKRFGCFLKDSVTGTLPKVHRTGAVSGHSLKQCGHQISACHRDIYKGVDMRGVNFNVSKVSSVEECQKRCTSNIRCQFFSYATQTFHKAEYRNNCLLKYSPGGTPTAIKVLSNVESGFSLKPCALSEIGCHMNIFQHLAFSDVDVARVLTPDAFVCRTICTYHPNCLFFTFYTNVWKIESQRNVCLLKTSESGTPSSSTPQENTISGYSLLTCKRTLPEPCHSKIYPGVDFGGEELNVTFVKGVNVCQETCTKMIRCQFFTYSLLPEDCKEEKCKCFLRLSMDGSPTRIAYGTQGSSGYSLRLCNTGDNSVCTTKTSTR
- test-description: Chromogenic assay, plasma kallikrein
- Format: biochemical
- experimental-setup: Table 3
quantity-measured: Ki

The cases that follow already have their Ki on record.
1. CNC(Cc1ccccc1)C(=O)N1CCCC1C(=O)NC(C(=O)C(=O)NCc1ccccc1)C1CCC(N)CC1 (mixture of isomers) [xvi]
> 10000 nM
2. CNC(=O)C(=O)C(NC(=O)C1CCCN1C(=O)C(Cc1ccc2ccccc2c1)NC)C1CCC(N)CC1 (stereo not drawn) [xiv]
> 10000 nM
3. CNC(=O)C(=O)C(NC(=O)C1CCCN1C(=O)CCC1CCCCC1)C1CCC(N)CC1 (stereo not drawn) [xiii]
> 10000 nM
4. CNC(=O)C(=O)C(NC(=O)C1CCCN1C(=O)C(CC1CCCCC1)NC)C1CCC(N)CC1 (stereo not drawn) [x]
> 10000 nM
5. CNC(=O)C(=O)C(NC(=O)C1CCCN1C(=O)CCc1ccc(Cl)c(Cl)c1)C1CCC(N)CC1 (stereo not drawn) [xi]
> 10000 nM
6. CNC(=O)C(=O)C(NC(=O)C1CCCN1C(=O)C(Cc1ccc(Cl)c(Cl)c1)NC)C1CCC(N)CC1 (stereo not drawn) [xii]
> 10000 nM
7. CNC(Cc1ccccc1)C(=O)N1CCCC1C(=O)NC(C(=O)C(=O)O)C1CCC(N)CC1 (racemic) [3-3, H-NMe-D-Phe-Pro-t-DL-AcgY[COCO]--OH]
7000 nM
8. CNC(Cc1ccccc1)C(=O)N1CCCC1C(=O)NC(C(=O)C(=O)NC1CC1)C1CCC(N)CC1 (mixture of isomers) [xvii]
9000 nM
9. CNC(Cc1ccccc1)C(=O)N1CCCC1C(=O)NC(C(=O)C(=O)N1CCC1)C1CCC(N)CC1 (mixture of isomers) [xviii]
> 10000 nM
10. CNC(=O)C(=O)C(NC(=O)C1CCCN1C(=O)CC(c1ccccc1)c1ccccc1)C1CCC(N)CC1 (mixture of isomers) [xv]
> 10000 nM

Dear colleague, I am looking for the recorded Ki of the following compound: CNC(=O)C(=O)C(NC(=O)C1CCCN1C(=O)CCc1ccccc1)C1CCC(N)CC1 (mixture of isomers) [ix]
> 10000 nM

Dear colleague, I am looking for the recorded Ki of the following compound: CNC(=O)C(=O)C(NC(=O)C1CCCN1C(=O)C(Cc1ccccc1)NC)C1CCC(N)CC1 (stereo not drawn) [4-4]
> 10000 nM
